protocol summary: Antiproliferative activity against rat RKE cells expressing CD8-TrkA after 3 days
Format: functional, cell-based
cond: 72 h
Note to self: IC50 under 400 nM means yes (1), ties and anything higher get no (0).

• Cc1ccc(Sc2cnc(Nc3cccc(Br)n3)s2)cc1C(=O)N1CCN(C(=O)[C@@H](C)N)CC1 = yes (1)
• Cc1ccc(Sc2cnc(Nc3cccc(Br)n3)s2)cc1C(=O)N1CCN(C(=O)[C@H](C)N)CC1 = no (0)
• Cc1ccc(Sc2cnc(Nc3cccc(Br)n3)s2)cc1C(=O)N1CCN(C(=O)CN)CC1 = no (0)
• CNCCN(C)C(=O)c1cc(Sc2cnc(Nc3cccc(Br)n3)s2)ccc1C = no (0)
• Cc1ccc(Sc2cnc(Nc3cccc(Br)n3)s2)cc1C(=O)N(C)CCC#N = yes (1)

Hi there! Is IC50 for CCNC(=O)c1cc(Sc2cnc(Nc3ccccn3)s2)ccc1C below 400 nM, do you know?
no (0)

Hi there! Is IC50 for CC(=O)N1CCN(C(=O)c2cc(Sc3cnc(Nc4cccc(Br)n4)s3)ccc2C)CC1 below 400 nM, do you know?
yes (1)

---

tgt: Cyclin-dependent kinase 2 (Homo sapiens, UniProt P24941)
quantity name: IC50 (nM)
Use nM as the unit, but write only the number.

Worked cases, answers included:
• CC(=O)N1CCN(C(=O)c2cc(Sc3cnc(Nc4cccc(Br)n4)s3)ccc2C)CC1 = 490
• Cc1ccc(Sc2cnc(Nc3cccc(Br)n3)s2)cc1C(=O)N1CCN(C(=O)[C@H](C)N)CC1 = 520

Now for a further molecule.
GET /values?readout=IC50&system=Cyclin-dependent kinase 2 (Homo sapiens, UniProt P24941)&item= Cc1ccc(Sc2cnc(Nc3cccc(Br)n3)s2)cc1C(=O)N1CCN(C(=O)CN)CC1
540

---

Property: IC50; scope: individual molecules
Test system: SH-SY5Y
protocol summary: Antiproliferative activity against human SH-SY5Y cells after 3 days
Assay type: functional, cell-based
cond: 72 h
Use nM as the unit, but write only the number.

Worked cases, answers included:
• Cc1ccc(Sc2cnc(Nc3cccc(Br)n3)s2)cc1C(=O)N(C)CC#N = 750
• Cc1ccc(Sc2cnc(Nc3cccc(Br)n3)s2)cc1C(=O)N(C)CCC#N = 1170

Now for a further molecule.
GET /values?readout=IC50&system=SH-SY5Y&item= Cc1ccc(Sc2cnc(Nc3cccc(Br)n3)s2)cc1C(=O)N1CCN(C(=O)[C@@H](C)N)CC1
1780

---

tgt: High affinity nerve growth factor receptor (Homo sapiens, UniProt P04629)
Sequence (P04629 whole entry): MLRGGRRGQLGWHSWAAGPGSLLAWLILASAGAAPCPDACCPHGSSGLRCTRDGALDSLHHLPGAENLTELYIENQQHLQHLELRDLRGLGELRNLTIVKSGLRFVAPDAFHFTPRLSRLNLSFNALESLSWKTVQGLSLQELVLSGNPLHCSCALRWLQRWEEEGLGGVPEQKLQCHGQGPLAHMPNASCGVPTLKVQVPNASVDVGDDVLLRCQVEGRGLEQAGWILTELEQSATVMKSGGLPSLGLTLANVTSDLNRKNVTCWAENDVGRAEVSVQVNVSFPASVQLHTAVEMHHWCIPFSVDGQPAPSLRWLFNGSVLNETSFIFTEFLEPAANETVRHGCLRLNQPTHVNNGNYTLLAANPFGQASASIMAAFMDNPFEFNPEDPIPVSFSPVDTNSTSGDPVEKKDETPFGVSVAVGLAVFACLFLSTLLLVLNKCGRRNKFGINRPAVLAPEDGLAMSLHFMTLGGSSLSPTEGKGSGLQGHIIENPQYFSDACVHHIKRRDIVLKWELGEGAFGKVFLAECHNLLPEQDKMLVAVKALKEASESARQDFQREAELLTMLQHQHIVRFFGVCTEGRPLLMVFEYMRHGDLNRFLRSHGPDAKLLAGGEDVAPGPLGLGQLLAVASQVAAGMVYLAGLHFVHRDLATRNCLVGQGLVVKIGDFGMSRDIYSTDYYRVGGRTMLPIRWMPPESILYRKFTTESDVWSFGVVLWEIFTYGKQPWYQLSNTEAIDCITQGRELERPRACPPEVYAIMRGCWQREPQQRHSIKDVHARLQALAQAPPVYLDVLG
Property: IC50; scope: individual compounds
Use nM as the unit, but write only the number.

Worked cases, answers included:
- CC(=O)N1CCN(C(=O)c2cccc(Sc3cnc(Nc4ccc(Br)cn4)s3)c2)CC1: 520
- CCC(=O)N1CCN(C(=O)c2cc(Sc3cnc(Nc4cccc(Br)n4)s3)ccc2C)CC1: 21
- CC(=O)N1CCN(C(=O)c2cccc(Sc3cnc(Nc4cccc(C)n4)s3)c2)CC1: 1100

Now for a further compound.
GET /values?readout=IC50&system=High affinity nerve growth factor receptor (Homo sapiens, UniProt P04629)&item= Cc1ccc(Sc2cnc(Nc3cccc(Br)n3)s2)cc1C(=O)NCCC#N
67

---

Dear all, this message contains pIC50 results, target or system High affinity nerve growth factor receptor (Homo sapiens).
In textbook form, pIC50 equals minus log to base ten of the concentration in mol/L.

- Cc1ccc(Sc2cnc(Nc3ccccn3)s2)cc1C(=O)N1CCN(S(C)(=O)=O)CC1: 6.04
- Cc1ccc(Sc2cnc(Nc3cccc(Br)n3)s2)cc1C(=O)N(C)CC#N: 8.70
- Cc1ccc(Sc2cnc(Nc3cccc(Br)n3)s2)cc1C(=O)N1CCN(C(=O)[C@@H](C)N)CC1: 9.00
- CC(=O)N1CCN(C(=O)c2cccc(Sc3cnc(Nc4ccccn4)s3)c2)CC1: 6.62
- COC(=O)N1CCN(C(=O)c2cc(Sc3cnc(Nc4ccccn4)s3)ccc2C)CC1: 6.68

Now for a further molecule.
GET /values?readout=pIC50&system=High affinity nerve growth factor receptor (Homo sapiens)&item= CC(=O)N1CCN(C(=O)c2cccc(Sc3cnc(Nc4cccc(Br)n4)s3)c2)CC1
7.30

---

System: SH-SY5Y
protocol summary: Antiproliferative activity against human SH-SY5Y cells after 3 days
Assay type: functional, cell-based
cond: 72 h
Property: pIC50; scope: individual compounds
In textbook form, pIC50 equals minus log to base ten of the concentration in mol/L.

* Cc1ccc(Sc2cnc(Nc3cccc(Br)n3)s2)cc1C(=O)N1CCN(C(=O)[C@H](C)N)CC1 | 5.37

Record request: pIC50 value, item CNCCN(C)C(=O)c1cc(Sc2cnc(Nc3cccc(Br)n3)s2)ccc1C
5.78

Record request: pIC50 value, item CC(=O)N1CCN(C(=O)c2cc(Sc3cnc(Nc4cccc(Br)n4)s3)ccc2C)CC1
5.94

Record request: pIC50 value, item Cc1ccc(Sc2cnc(Nc3cccc(Br)n3)s2)cc1C(=O)N1CCN(C(=O)CN)CC1
5.51

---

tgt: Insulin-like growth factor 1 receptor (Homo sapiens, UniProt P08069)
Sequence (P08069 31-736 limits assumed): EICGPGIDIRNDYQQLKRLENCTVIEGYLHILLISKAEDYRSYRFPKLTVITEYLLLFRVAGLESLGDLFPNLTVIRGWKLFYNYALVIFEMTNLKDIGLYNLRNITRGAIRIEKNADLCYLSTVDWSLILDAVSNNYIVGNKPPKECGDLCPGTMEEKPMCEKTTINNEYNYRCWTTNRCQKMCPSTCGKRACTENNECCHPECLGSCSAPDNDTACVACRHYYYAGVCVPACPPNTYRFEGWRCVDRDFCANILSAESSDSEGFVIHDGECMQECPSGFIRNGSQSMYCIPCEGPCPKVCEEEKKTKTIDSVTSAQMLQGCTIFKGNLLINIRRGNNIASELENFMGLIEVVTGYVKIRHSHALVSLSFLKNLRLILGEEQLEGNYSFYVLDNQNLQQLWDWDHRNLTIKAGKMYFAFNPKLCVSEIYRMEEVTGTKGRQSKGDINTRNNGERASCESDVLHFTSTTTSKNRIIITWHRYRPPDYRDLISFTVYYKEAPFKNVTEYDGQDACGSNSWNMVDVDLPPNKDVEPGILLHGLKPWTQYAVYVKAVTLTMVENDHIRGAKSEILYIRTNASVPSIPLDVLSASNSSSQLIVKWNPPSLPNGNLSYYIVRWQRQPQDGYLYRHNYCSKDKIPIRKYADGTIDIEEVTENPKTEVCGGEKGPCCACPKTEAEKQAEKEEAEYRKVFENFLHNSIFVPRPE
Sequence (P08069 741-1367 limits assumed): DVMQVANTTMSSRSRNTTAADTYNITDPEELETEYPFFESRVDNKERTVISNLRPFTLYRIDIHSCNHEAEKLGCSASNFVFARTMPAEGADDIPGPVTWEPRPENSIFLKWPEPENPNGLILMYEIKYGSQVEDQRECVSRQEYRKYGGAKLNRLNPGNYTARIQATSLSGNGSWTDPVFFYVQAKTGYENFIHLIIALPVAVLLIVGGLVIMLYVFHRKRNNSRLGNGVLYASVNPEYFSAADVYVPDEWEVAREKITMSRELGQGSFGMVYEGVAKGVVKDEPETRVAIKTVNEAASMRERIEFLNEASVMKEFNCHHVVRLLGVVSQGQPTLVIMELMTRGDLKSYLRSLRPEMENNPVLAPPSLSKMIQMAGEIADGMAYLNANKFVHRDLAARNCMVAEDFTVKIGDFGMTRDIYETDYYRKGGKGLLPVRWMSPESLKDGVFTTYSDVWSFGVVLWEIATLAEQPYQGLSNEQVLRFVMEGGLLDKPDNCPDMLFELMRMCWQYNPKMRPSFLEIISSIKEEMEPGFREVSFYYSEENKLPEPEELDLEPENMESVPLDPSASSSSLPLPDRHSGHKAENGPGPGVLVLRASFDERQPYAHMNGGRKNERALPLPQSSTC
Property: pIC50; scope: individual molecules
In textbook form, pIC50 equals minus log to base ten of the concentration in mol/L.

- Cc1ccc(Sc2cnc(Nc3cccc(Br)n3)s2)cc1C(=O)N1CCN(C(=O)[C@H](C)N)CC1: 6.44

GET /values?readout=pIC50&system=Insulin-like growth factor 1 receptor (Homo sapiens, UniProt P08069)&item= Cc1ccc(Sc2cnc(Nc3cccc(Br)n3)s2)cc1C(=O)N1CCN(C(=O)[C@@H](C)N)CC1
6.15

meta.source: ChEMBL document CHEMBL1140800
